Hi there, I'd appreciate the recorded self-cleavage for every entry that follows.
B1: CPEB3 Ribozyme (parent)
chain: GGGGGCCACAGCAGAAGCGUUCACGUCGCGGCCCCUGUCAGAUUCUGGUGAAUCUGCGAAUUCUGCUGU

Variants of: B1
Assay: self-cleavage, relative activity (ratio to wild type); higher = more cleavage; co-transcriptional
Give bare numbers.

Solved cases (8 shown):
Variant Name: A52U U61G
Value Observed: 0.741
//
Variant Name: A13C C33G
Value Observed: 0.231
//
Variant Name: C35G U55C
Value Observed: 0.33
//
Variant Name: A15U G68A
Value Observed: 0.937
//
Variant Name: U21A G58U
Value Observed: 0.996
//
Variant Name: U44A G48U
Value Observed: 0.982
//
Variant Name: U36C U55C
Value Observed: 0.74
//
Variant Name: A40U G48A
Value Observed: 0.977

Hello, I would appreciate it if you could give self-cleavage for each entry below.
1. C24A G65C
2. G41U
3. C7U G50A

stdout:
1. 0.245
2. 0.928
3. 0.996

Hello, I would appreciate it if you could give self-cleavage for each entry below.
1. C27U U43C
2. C34A C35A
3. A42U U44G

stdout:
1: 0.285; 2: 0.275; 3: 0.859

Hello, I would appreciate it if you could give self-cleavage for each entry below.
1. A10C U53G
2. G14A G47A
3. G30A C35U
4. A10G U64G
5. G3A U55A

stdout:
[0.927, 0.826, 0.533, 0.398, 0.395]
